# Test system: Leishmania major
# procedure_summary: Antileishmanial activity against Leishmania major promastigotes assessed as parasite growth inhibition
# Type: functional, organism-based
pEC50: −log10 of the molar value.
measurement_type: pEC50

1) CCOC1C[C@H](CCCCOCc2ccccc2)O[C@H](Cn2cc([C@@H]3CCC[C@H](CCCCOCc4ccccc4)O3)nn2)C1 (stereo partly drawn) : 4.82
2) CC(C)[C@@H]1NC(=O)[C@H](C)OC(=O)[C@@H](C(C)C)NC(=O)[C@@H](C(C)C)OC(=O)[C@H](C(C)C)NC(=O)[C@H](C)OC(=O)[C@@H](C(C)C)NC(=O)[C@@H](C(C)C)OC(=O)[C@H](C(C)C)NC(=O)[C@H](C)OC(=O)[C@@H](C(C)C)NC(=O)[C@@H](C(C)C)OC1=O [VALINOMYCIN] : > 6.96
3) C=C(C)C(=O)O[C@H]1CC2=C[C@@H](C/C(C)=C/[C@H]3OC(=O)C(=C)[C@H]13)OC2=O : > 6.55

---

# procedure_summary: Selectivity index, ratio of IC50 for cytotoxicity against African green monkey Vero cells to IC50 for antileishmanial activity against amastigote form of Leishmania donovani
# Type: toxicity, cell-based
# cond: read-out: Ratio IC50
measurement_type: selectivity ratio

1. C/C1=C/C(=O)O[C@H](C(C)(C)C)CCC[C@H](O)CCC[C@H](O)CCC[C@H](O)CCC[C@@H](O)C[C@@H](O)C[C@H](O)CCC[C@@H](O)CCC[C@@H](O)C[C@@H](O)CCCCC1 : 1

---

# procedure_summary: Selectivity index, ratio of CC50 for cytotoxicity against human HepG2 cells to EC50 for antitrypanosomal activity against bloodstream form of Trypanosoma brucei brucei
# Format: toxicity, cell-based
# cond: read-out: Ratio CC50/EC50
measurement_type: selectivity ratio

1) C=C1CO[C@H]2/C=C(\C)CC[C@@H]3O[C@@]3(C)CC/C=C(\C)CC[C@@]12O : > 20

---

# System: Trypanosoma cruzi
# procedure_summary: Antitrypanosomal activity against Trypanosoma cruzi amastigote
# Assay type: functional, organism-based
measurement_type: EC50 (nM)

1) COc1cc2c(c3oc4cccc(O)c4c(=O)c13)[C@@H]1C=CO[C@@H]1O2 : 130

---

# procedure_summary: Selectivity index, ratio of IC50 for cytotoxicity against African green monkey Vero cells to IC50 for antitrypanosomal activity against Trypanosoma cruzi amastigote
# Assay type: toxicity, cell-based
# cond: read-out: Ratio IC50
// reported selectivity ratio for each item listed
measurement_type: selectivity ratio

1. COc1cc2c(c3oc4cccc(O)c4c(=O)c13)[C@@H]1C=CO[C@@H]1O2 : 0.46
2. C/C1=C/C(=O)O[C@H](C(C)(C)C)CCC[C@H](O)CCC[C@H](O)CCC[C@H](O)CCC[C@@H](O)C[C@@H](O)C[C@H](O)CCC[C@@H](O)CCC[C@@H](O)C[C@@H](O)CCCCC1 : 2

---

// reported EC50 for each item listed
# System: Trypanosoma brucei
# procedure_summary: Antitrypanosomal activity against bloodstream form of Trypanosoma brucei assessed as parasite growth inhibition
# Format: functional, organism-based
measurement_type: EC50 (nM)

1) Cn1c2c3cc(Br)ccc3nc-2cc2cc(Br)ccc21 : 2.9
2) COc1c(O)cc2oc3cc(O)c(CC=C(C)C)c(O)c3c(=O)c2c1CC=C(C)C [MANGOSTIN] : 7900
3) C[n+]1c2ccccc2cc2[n-]c3ccccc3c21 [CRYPTOLEPINE] : 300
4) COc1cc(O)c2c(c1)[C@H]1O[C@@H]1C[C@H](O)[C@H](O)C(=O)/C=C\C[C@H](C)OC2=O [HYPOTHEMYCIN] : 170

---

# procedure_summary: Selectivity index, ratio of IC50 for cytotoxicity against rat L6 cells to IC50 for antitrypanosomal activity against bloodstream form of Trypanosoma brucei rhodesiense
# Assay type: toxicity, cell-based
# cond: read-out: Ratio IC50
// reported selectivity ratio for each item listed
measurement_type: selectivity ratio

1) O=c1cc(-c2ccccc2)oc2c(O)c(O)ccc12 [7,8-DIHYDROXYFLAVONE] : 116
2) COc1ccc2c(=O)cc(-c3ccccc3)oc2c1OC : 5
3) O=c1cc(-c2ccc(O)c(O)c2)oc2cc(O)cc(O)c12 : 3
4) COc1cc(-c2oc3cc(O)cc(O)c3c(=O)c2O)ccc1O : 4.6

---

# procedure_summary: Selectivity index, ratio of EC50 for cytotoxicity against African green monkey Vero cells to EC50 for antitrypanosomal activity against Trypanosoma brucei brucei
# Assay type: toxicity, cell-based
# cond: read-out: Ratio EC50
measurement_type: selectivity ratio

1) CCOC1C[C@H](CCCCOCc2ccccc2)O[C@H](Cn2cc([C@@H]3CCC[C@H](CCCCOCc4ccccc4)O3)nn2)C1 (stereo partly specified) : 100

---

# procedure_summary: Selectivity index, ratio of IC50 for cytotoxicity against human MRC5 cells to IC50 for antileishmanial activity against amastigote stage of Leishmania infantum
# Format: toxicity, cell-based
# cond: read-out: Ratio IC50
measurement_type: selectivity ratio

1. COc1c(O)cc2oc3cc(O)c(CC=C(C)C)c(O)c3c(=O)c2c1CC=C(C)C : 0.93

---

# procedure_summary: Selectivity index, ratio of IC50 for cytotoxicity against human MRC5 cells to IC50 for antitrypanosomal activity against intracellular Trypanosoma cruzi amastigote
# Format: toxicity, cell-based
# cond: read-out: Ratio IC50
measurement_type: selectivity ratio

1. COc1c(O)cc2oc3cc(O)c(CC=C(C)C)c(O)c3c(=O)c2c1CC=C(C)C : 0.84
